Numbers sourced from patent US20120178694A1.

# System name: biotinylated C3b (UniProt P01024)
# Protocol: SPR, Biacore 3000; biotinylated C3b on streptavidin chip, peptide injected; 1:1 fit
Bridge positions count the residues as written; N and C are the ends. Square brackets hold non-standard residues; d marks the D form. Trp(1-Me) = Cn1cc(C[C@H](N)C(=O)O)c2ccccc21; NMeI = CC[C@H](C)[C@H](NC)C(=O)O; Sar = CNCC(=O)O
We begin with a simple list: items and their reported kon.
Quantity name: kon (M⁻¹ s⁻¹)

Binder	Measured result
Ac-ICV[Trp(1-Me)]QDW[Sar]AHRCI-NH2 (disulfide 2-12; SMILES CC[C@H](C)[C@H](NC(=O)[C@@H]1CSSC[C@H](NC(=O)[C@@H](NC(C)=O)[C@@H](C)CC)C(=O)N[C@@H](C(C)C)C(=O)N[C@@H](Cc2cn(C)c3ccccc23)C(=O)N[C@@H](CCC(N)=O)C(=O)N[C@@H](CC(=O)O)C(=O)N[C@@H](Cc2c[nH]c3ccccc23)C(=O)N(C)CC(=O)N[C@@H](C)C(=O)N[C@@H](Cc2c[nH]cn2)C(=O)N[C@@H](CCCNC(=N)N)C(=O)N1)C(N)=O, Sar^8, Ile^13; also called peptide 17; Ac-Ic[CV(1-MeW)QDW(N-MeG)AHRC]I-NH2) [Ac-Ile-c[Cys-Val-Trp(Me)-Gln-Asp-Trp-Sar-Ala-His-Arg-Cys]-Ile-NH2]	1.5e+06
Ac-ICV[Trp(1-Me)]QDW[Sar]AHRC[NMeI]-NH2 (disulfide 2-12; SMILES CC[C@H](C)[C@H](NC(C)=O)C(=O)N[C@H]1CSSC[C@@H](C(=O)N(C)[C@H](C(N)=O)[C@@H](C)CC)NC(=O)[C@H](CCCNC(=N)N)NC(=O)[C@H](Cc2c[nH]cn2)NC(=O)[C@H](C)NC(=O)CN(C)C(=O)[C@H](Cc2c[nH]c3ccccc23)NC(=O)[C@H](CC(=O)O)NC(=O)[C@H](CCC(N)=O)NC(=O)[C@H](Cc2cn(C)c3ccccc23)NC(=O)[C@H](C(C)C)NC1=O, Sar^8, (NMe)Ile^13; also called peptide 21; analog 21) [Ac-Ic[CV(1-MeW)QDW(N-MeG)AHRC](N-MeI)-NH2]	1.5e+06
